Entry source: ChEMBL document CHEMBL5528050

Task for the reader: assign each of the following compounds its reported IC50.
- Test system: HCT-116
- experimental_details: cells
- experimental_conditions: Homo sapiens, HCT-116, 72 h
- Description: Antiproliferative activity against human HCT-116 cells assessed as inhibition of cell growth measured after 72 hrs by CCK-8 method

Before answering, review these 2 worked examples.
compound: O=C(NCc1ccc(C(F)(F)F)cc1)C1=CCCN(Cc2ccc(F)c(F)c2)C1
result: 25.6 µM
--
compound: O=C(CCNC(=O)c1cc(C(F)(F)F)cc(C(F)(F)F)c1)Nc1ccc(Cl)cc1
result: 64.5 µM

Let's switch to this compound now.
What is its IC50 for HCT-116? Entry: O=C(NCc1ccc(C(F)(F)F)cc1)C1CCCN(C(=O)c2cc(C(F)(F)F)cc(C(F)(F)F)c2)C1 (stereo not drawn)
25.1 µM
